Every entry's value here was drawn from patent US10562898B2.

Molecular target: α4β7 integrin (Homo sapiens, UniProt P13612+P26010)
Construct: a cell line RPMI-8866, which is known to express α4β7 integrin; endogenous in cells; host or cells: RPMI-8866 (human B cell line)
Sequence (P13612 34-1032): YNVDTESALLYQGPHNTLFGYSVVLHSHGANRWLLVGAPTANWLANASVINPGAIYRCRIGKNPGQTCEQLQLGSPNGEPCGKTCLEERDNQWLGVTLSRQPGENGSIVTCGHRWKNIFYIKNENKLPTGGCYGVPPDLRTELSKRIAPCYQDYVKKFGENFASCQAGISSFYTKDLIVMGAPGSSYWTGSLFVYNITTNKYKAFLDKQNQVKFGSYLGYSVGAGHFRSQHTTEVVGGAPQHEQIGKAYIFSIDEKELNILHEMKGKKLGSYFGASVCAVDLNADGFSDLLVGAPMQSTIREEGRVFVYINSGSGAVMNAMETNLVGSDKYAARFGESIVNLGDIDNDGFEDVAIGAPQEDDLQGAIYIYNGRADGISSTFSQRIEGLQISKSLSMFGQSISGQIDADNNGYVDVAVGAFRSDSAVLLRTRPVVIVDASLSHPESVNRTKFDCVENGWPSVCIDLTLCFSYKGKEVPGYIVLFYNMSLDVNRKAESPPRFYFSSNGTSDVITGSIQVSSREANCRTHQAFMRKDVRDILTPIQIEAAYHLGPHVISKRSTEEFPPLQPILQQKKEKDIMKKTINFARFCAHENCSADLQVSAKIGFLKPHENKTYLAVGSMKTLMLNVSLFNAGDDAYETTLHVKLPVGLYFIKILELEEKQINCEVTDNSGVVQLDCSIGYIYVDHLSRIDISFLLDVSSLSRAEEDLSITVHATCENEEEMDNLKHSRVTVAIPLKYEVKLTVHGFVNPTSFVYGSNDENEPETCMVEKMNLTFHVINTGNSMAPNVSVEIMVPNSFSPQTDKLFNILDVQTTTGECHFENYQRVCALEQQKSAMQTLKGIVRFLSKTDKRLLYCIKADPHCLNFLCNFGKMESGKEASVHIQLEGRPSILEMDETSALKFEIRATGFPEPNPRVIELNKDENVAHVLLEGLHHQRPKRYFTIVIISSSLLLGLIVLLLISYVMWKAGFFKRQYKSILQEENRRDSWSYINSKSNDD
Sequence (P26010 20-798): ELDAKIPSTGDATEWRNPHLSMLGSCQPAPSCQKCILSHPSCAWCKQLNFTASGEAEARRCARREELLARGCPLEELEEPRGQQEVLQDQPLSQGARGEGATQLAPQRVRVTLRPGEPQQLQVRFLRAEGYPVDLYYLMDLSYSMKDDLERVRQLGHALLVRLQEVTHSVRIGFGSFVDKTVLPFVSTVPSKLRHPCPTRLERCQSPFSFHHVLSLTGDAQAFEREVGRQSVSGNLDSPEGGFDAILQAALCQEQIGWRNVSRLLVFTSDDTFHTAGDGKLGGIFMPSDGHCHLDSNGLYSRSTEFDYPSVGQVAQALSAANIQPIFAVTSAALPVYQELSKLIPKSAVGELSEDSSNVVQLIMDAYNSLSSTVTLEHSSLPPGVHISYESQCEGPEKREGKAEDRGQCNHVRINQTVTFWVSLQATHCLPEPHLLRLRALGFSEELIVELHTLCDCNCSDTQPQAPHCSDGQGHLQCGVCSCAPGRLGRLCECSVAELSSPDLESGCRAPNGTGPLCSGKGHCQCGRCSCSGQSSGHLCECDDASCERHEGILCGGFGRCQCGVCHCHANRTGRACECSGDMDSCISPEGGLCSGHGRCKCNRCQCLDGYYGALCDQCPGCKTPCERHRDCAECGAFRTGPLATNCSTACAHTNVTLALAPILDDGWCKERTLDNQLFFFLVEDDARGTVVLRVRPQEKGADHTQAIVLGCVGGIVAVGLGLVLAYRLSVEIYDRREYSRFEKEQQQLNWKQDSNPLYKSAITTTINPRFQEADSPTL
Experiment: MAdCAM-1/α4β7 integrin binding inhibitory activity evaluation test (RPMI-8866 cells binding to MAdCAM-1/Fc)
Type: cell-based
Conditions: recombinant mouse MAdCAM-1/Fc, no serum
pIC50: −log10 of the molar value.
Lab note: compare pIC50 against 9. Equal or greater, write t. Smaller, write f.

Q: Answer whether pIC50 of Cn1c(=O)n(-c2ccc(C[C@H](NC(=O)c3cc(F)c(NS(=O)(=O)c4ccc(NC(=O)C5(C(F)(F)F)CC5)cc4)cc3F)C(=O)O)cc2)c(=O)c2ccncc21 is greater than or equal to 9.
Result: t

Q: Answer whether pIC50 of Cc1c(C)n(C)c(=O)n(-c2ccc(C[C@H](NC(=O)c3cc(F)c(NS(=O)(=O)c4cc(NC(=O)C(C)(C)C)cs4)cc3F)C(=O)O)cc2)c1=O is greater than or equal to 9.
Result: f

Q: Answer whether pIC50 of Cn1c(=O)n(-c2ccc(C[C@H](NC(=O)c3cc(F)c(NS(=O)(=O)c4ccc(NC(=O)C(C)(C)CO)cc4)cc3F)C(=O)O)cc2)c(=O)c2ccncc21 is greater than or equal to 9.
Result: t

Q: Answer whether pIC50 of Cc1c(C)n(C)c(=O)n(-c2ccc(C[C@H](NC(=O)c3cc(F)c(NS(=O)(=O)c4ccc(N(C)C(=O)C(C)(C)C)cc4)cc3F)C(=O)O)cc2)c1=O is greater than or equal to 9.
Result: f

Q: Answer whether pIC50 of Cn1c(=O)n(-c2ccc(C[C@H](NC(=O)c3cc(F)c(NS(=O)(=O)c4ccc(NC(=O)C5CCNCC5)cc4)cc3F)C(=O)O)cc2)c(=O)c2ccncc21 is greater than or equal to 9.
Result: f
